Measured remaining at 4 h, 10 μM, listed per entry for reference.
- protocol_details: Peptide stability in simulated gastric fluid (SGF)
- Type: in vitro ADME
- condition: pig, simulated gastric fluid (SGF) with porcine pepsin, Table 3-3, porcine pepsin, pH 1.2, 37° C., 10 μM, 4 h, read-out: SGF (% remaining 4 h)
*1 amine or outer side, *2 acyl side, *3 side chain or, on linkers, in order; H or OH if unused. Where a SMILES comes first, the peptide text is derived from it. Bridges are numbered along the chain shown (N, C = ends). [ ]: non-standard residue; d: D form. αMeAla(3-pyridyl) = C[C@](N)(Cc1cccnc1)C(=O)O; Phe(3,4-Me2) = Cc1ccc(C[C@H](N)C(=O)O)cc1C; αMeW = C[C@](N)(Cc1c[nH]c2ccccc12)C(=O)O; 2Nal = N[C@@H](Cc1ccc2ccccc2c1)C(=O)O; AEF = NCCOc1ccc(C[C@H](N)C(=O)O)cc1; X1 = O=C(Cc1ccc(CN[*:1])cc1)[*:2]; αMeL = CC(C)C[C@](C)(N)C(=O)O; CH2COCH2 = O=C(C[*:1])C[*:2]; αMeV = CC(C)[C@](C)(N)C(=O)O; Dab = NCC[C@H](N)C(=O)O
Express your answer in %, writing the number without its unit.

1) CC(=O)N[C@@H](CC(=O)O)C(=O)N[C@H]1CCC(=O)NCCCC[C@@H](C(=O)N[C@@H](CCC(=O)O)C(=O)N[C@@H](CC(N)=O)C(=O)NCC(N)=O)NC(=O)[C@](C)(CC(C)C)NC(=O)[C@H](Cc2ccc3ccccc3c2)NC(=O)[C@H](Cc2c[nH]c3ccccc23)NC(=O)[C@@H]2CSCC(=O)CSC[C@H](NC(=O)[C@H](CO)NC1=O)C(=O)N[C@@H](Cc1c[nH]c3ccccc13)C(=O)N[C@@H](CCC(N)=O)C(=O)N2 [Compound 58] (Ac-DESCWQCW[2Nal][αMeL]KENG-NH2; lactam 2-11; linker 4-7 via CH2COCH2)    8
2) CC(C)C[C@]1(C)NC(=O)[C@H](Cc2ccc3ccccc3c2)NC(=O)[C@H](Cc2ccc(OCCN)cc2)NC(=O)[C@@H]2CSCC(=O)CSC[C@H](NC(=O)[C@H](CO)NC(=O)c3cccc(c3)CNC(=O)CC[C@@H](C(=O)N[C@@H](CO)C(N)=O)NC1=O)C(=O)N[C@@H](Cc1c[nH]c3ccccc13)C(=O)N[C@@H](CCC(N)=O)C(=O)N2    73
3) CC(C)C[C@]1(C)NC(=O)[C@H](Cc2ccc3ccccc3c2)NC(=O)[C@H](Cc2ccccc2)NC(=O)[C@@H]2CCNC(=O)CC[C@H](NC(=O)[C@H](CO)NC(=O)Cc3ccc(cc3)CNC(=O)CC[C@@H](C(=O)N[C@@H](CCN)C(N)=O)NC1=O)C(=O)N[C@@H](Cc1c[nH]c3ccccc13)C(=O)N[C@@H](CCC(N)=O)C(=O)N2 [Compound 130] ([X1]SEWQ[Dab]F[2Nal][αMeL]E[Dab]-NH2; lactam 3-6, N-10)    14
4) CC[C@H](C)[C@@H]1NC(=O)Cc2ccc(cc2)CNC(=O)CC[C@@H](C(=O)N[C@@H](CCN)C(=O)N[C@@](C)(Cc2cccnc2)C(N)=O)NC(=O)[C@](C)(C(C)C)NC(=O)[C@H](Cc2ccc(C)c(C)c2)NC(=O)[C@](C)(Cc2c[nH]c3ccccc23)NC(=O)[C@@H]2CCNC(=O)CC[C@H](NC1=O)C(=O)N[C@@H](Cc1c[nH]c3ccccc13)C(=O)N[C@@H](CCC(N)=O)C(=O)N2 [Compound 172] ([X1]IEWQ[Dab][αMeW][Phe(3,4-Me2)][αMeV]E[Dab][αMeAla(3-pyridyl)]-NH2; lactam 3-6, N-10)    99

Switching to the query record.
Input CC[C@H](C)[C@@H]1NC(=O)Cc2ccc(cc2)CNC(=O)CC[C@@H](C(=O)N[C@@H](CCN)C(=O)N[C@@](C)(Cc2cccnc2)C(N)=O)NC(=O)[C@](C)(C(C)C)NC(=O)[C@H](Cc2ccc(C)c(C)c2)NC(=O)[C@H](Cc2ccc(OCCN)cc2)NC(=O)[C@@H]2CCNC(=O)CC[C@H](NC1=O)C(=O)N[C@@H](Cc1c[nH]c3ccccc13)C(=O)N[C@@H](CCC(N)=O)C(=O)N2 [Compound 165] ([X1]IEWQ[Dab][AEF][Phe(3,4-Me2)][αMeV]E[Dab][αMeAla(3-pyridyl)]-NH2; lactam 3-6, N-10) . Output remaining at 4 h, 10 μM: 109
